assay-summary: Partition coefficient, log P of the compound
Assay type: physicochemical
condition-description: octanol/water
measurement-name: logP
Could you respond with only the numeric value?

Look up logP: Cc1cc(O)c2c(=O)c3c(O)cc(O)c4c5c(O)c([123I])c(O)c6c(=O)c7c(O)cc(C(=O)O)c8c1c2c(c34)c(c78)c65
1.47
